# Test system: 677734-321-R-J1-PDC complex spheroid viability
# Protocol notes: Anticancer human tumor 677734-321-R-J1-PDC patient-derived soft tissue sarcoma cell line growth inhibition [POLQ]
# Condition parameters: curve of first compound; second compound 1 µM
# Protocol: Multicellular complex tumor spheroid response to Polymerase (POL) inhibitors (novobiocin, ART-558, RP6685) in combination with a variety of drugs and investigational agents in selected tumor cell lines The POL inhibitors (novobiocin, ART-558, and RP6685) were evaluated both individually and in combination with standard of care and investigational anticancer small molecules within a complex spheroid model of solid tumors. . […]
Result type: IC50 (µM)
Lab book: enter the figure in µM, no units written.

CC[C@@]1(O)C(=O)OCc2c1cc1n(c2=O)Cc2cc3c(CN(C)C)c(O)ccc3nc2-1 + Cc1cccc(N(C)C(=O)C2C(O)CCN2c2nc(C)cc(C(F)(F)F)c2C#N)c1 = 0.0275
CCCS(=O)(=O)Nc1ccc(F)c(C(=O)c2c[nH]c3ncc(-c4ccc(Cl)cc4)cc23)c1F + Nc1ccc(C#CCN(C(=O)Cc2ncc(C(F)(F)F)cc2C(F)(F)F)c2ccc(F)cc2)nn1 = 4.5

Give the reported IC50 for this compound. O=c1[nH]cc(F)c(=O)[nH]1 + Cc1cccc(N(C)C(=O)C2C(O)CCN2c2nc(C)cc(C(F)(F)F)c2C#N)c1
5.91

Item CC1COCCN1c1cc(C2(S(C)(=N)=O)CC2)nc(-c2ccnc3[nH]ccc23)n1 (stereo not given) + Nc1ccc(C#CCN(C(=O)Cc2ncc(C(F)(F)F)cc2C(F)(F)F)c2ccc(F)cc2)nn1 : provide IC50
1.03

# return recorded IC50 for input O=c1[nH]cc(F)c(=O)[nH]1 + COC1C(OC(N)=O)C(O)C(Oc2ccc3c(O)c(NC(=O)c4ccc(O)c(CC=C(C)C)c4)c(=O)oc3c2C)OC1(C)C
3.15

----------
# System: 677734-321-R-J1-PDC complex spheroid viability
# Protocol notes: Anticancer human tumor 677734-321-R-J1-PDC cell line growth inhibition [POLQ];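 further: spheroids exposed to compounds for one week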;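 on viability, T/C: 100% = vehicle DMSO treated spheroids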
# Condition parameters: second compound 0.0316 µM; first compound 0.316 µM; stronger effect = lower value
Result type: viability, T/C (%)
Please respond with the number in % and leave the unit unwritten.

Worked examples, 2 molecules total:
CC1COCCN1c1cc(-c2ccnn2C)c2ccnc(-c3ccn[nH]3)c2n1 (centres undefined) + COC1C(OC(N)=O)C(O)C(Oc2ccc3c(O)c(NC(=O)c4ccc(O)c(CC=C(C)C)c4)c(=O)oc3c2C)OC1(C)C = 23.7
C=CC(=O)N1CCN(c2nc(=O)n(-c3c(C)ccnc3C(C)C)c3nc(-c4c(O)cccc4F)c(F)cc23)C(C)C1 (centres undefined) + Cc1cccc(N(C)C(=O)C2C(O)CCN2c2nc(C)cc(C(F)(F)F)c2C#N)c1 = 103

Return the recorded viability, T/C value; entry: COc1cccc(OCCCN)c1-c1cc(Nc2cnc(C#N)cn2)n[nH]1 + COC1C(OC(N)=O)C(O)C(Oc2ccc3c(O)c(NC(=O)c4ccc(O)c(CC=C(C)C)c4)c(=O)oc3c2C)OC1(C)C
8.59

Quote viability, T/C reported for CNCc1ccc(-c2[nH]c3cc(F)cc4c3c2CCNC4=O)cc1 + Cc1cccc(N(C)C(=O)C2C(O)CCN2c2nc(C)cc(C(F)(F)F)c2C#N)c1 please.
107
